SYSTEM_UNDER_TEST: T1, Duffy Antigen Receptor for Chemokines (DARC) (human), Q16570
T1 chain: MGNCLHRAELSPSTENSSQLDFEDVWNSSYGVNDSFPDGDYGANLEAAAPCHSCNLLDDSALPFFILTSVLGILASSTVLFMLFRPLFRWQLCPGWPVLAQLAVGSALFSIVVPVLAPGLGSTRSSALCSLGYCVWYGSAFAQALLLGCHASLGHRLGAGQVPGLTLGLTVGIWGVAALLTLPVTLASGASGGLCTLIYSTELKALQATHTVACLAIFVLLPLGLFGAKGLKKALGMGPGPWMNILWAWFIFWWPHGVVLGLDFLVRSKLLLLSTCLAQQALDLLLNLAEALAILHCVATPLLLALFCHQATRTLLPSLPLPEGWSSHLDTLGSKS
TEST_METHOD_NOTES: Duffy binding; kind of constant not named
No end group written: not given here.
MEASURE: Kd (µM)
Record the value in µM, omitting the unit from your answer.

IN: Suppose we examine the binder VAEKPCKSSTIRRYS (not fully specified (some residues)) [LRD peptide 2(1-15)[MCP-1]] ; what Kd value has been reported?
OUT: 25
